Kindly state pIC50 for each of the entries shown.
test: Inhibition of HCV 1a protease 1a domain; set-up: species or system Hepacivirus hominis
Give bare numbers, as −log10 of the molar value.

Worked examples, 3 compounds total:
- COc1ccc2c(O[C@@H]3C[C@H]4C(=O)N[C@]5(C(=O)NS(=O)(=O)C6CC6)C[C@H]5/C=C\CCCCC[C@H](NC(=O)N5CCC(c6ccccc6)CC5)C(=O)N4C3)cc(-c3nc(C(C)C)cs3)nc2c1C: 8.15
- COc1ccc2c(O[C@@H]3C[C@H]4C(=O)N[C@]5(C(=O)NS(=O)(=O)C6CC6)C[C@H]5/C=C\CCCCC[C@H](NC(=O)N5CCC(O)CC5)C(=O)N4C3)cc(-c3nc(C(C)C)cs3)nc2c1C: 8.70
- COc1ccc2c(O[C@@H]3C[C@H]4C(=O)N[C@]5(C(=O)NS(=O)(=O)C6CC6)C[C@H]5/C=C\CCCCC[C@H](NC(=O)N5CCC(CO)CC5)C(=O)N4C3)cc(-c3nc(C(C)C)cs3)nc2c1C: 9.00

Answer for every listed entry: what is its pIC50? The entries follow.
1. COc1ccc2c(O[C@@H]3C[C@H]4C(=O)N[C@]5(C(=O)O)C[C@H]5/C=C\CCCCC[C@H](NC(=O)OC5CCCC5)C(=O)N4C3)cc(-c3csc(NC(C)C)n3)nc2c1 [CILUPREVIR]
2. COc1ccc2c(O[C@@H]3C[C@H]4C(=O)N[C@]5(C(=O)NS(=O)(=O)C6CC6)C[C@H]5/C=C\CCCCC[C@H](NC(=O)NCc5ccc6c(c5)B(O)OC6)C(=O)N4C3)cc(-c3nc(C(C)C)cs3)nc2c1C

**Result**
8.70
8.70
